system name: MeCP2-TBL1 interaction (MeCP2-SmBiT / TBL1-LgBiT) (Mus musculus)
Construct: expressed in transfected cells; crude lysate used as a cell-free assay
procedure details: MeCP2-TBL1 NanoLuc luciferase complementation assay (cell-free, extracts of transfected HEK293 cells);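 note: each compound tested at 20 µM final concentration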
Type: binding, human
settings: primary screen of the Asinex library, sheet "Sargen output Asinex library", one well per compound
For each record, write down the corresponding Inhibition percent.
Give bare numbers, in %.

CC(=O)N1CCC(c2nc3c(c(NCCOc4cccc(C)c4C)n2)CN(C)CC3)CC1 ... 1.06
C=CCN1CCN(C(=O)Cc2cccnc2)C(Cc2ccc(-c3cccs3)cc2)C1=O (stereo not drawn) ... 0.61
O=C(NC1CCCC1)c1cc(C2CCCCN2C(=O)C2CCN(Cc3ccncc3)CC2)n[nH]1 (stereo not drawn) ... -2.91
CNC(=O)c1ccc(-c2cccc(C3CN(CC(=O)NCc4ccccn4)CCO3)n2)cn1 (stereo not drawn) ... 1.99

Could you report Inhibition percent for every entry in the following list?
1. COCc1nc2ccccc2n1CC(=O)N1CCCCC1C1CCN(C(=O)c2cnc(C)cn2)CC1 (stereo not drawn)
2. CNc1ncccc1CN1CCCC(c2cccc(Cc3cccc(F)c3)n2)C1 (stereo not drawn)
3. COc1cccc2c1OC(C)(C)[C@H]1CC[C@H](C3CCN(C(=O)CCCC(=O)O)CC3)O[C@H]21

result:
1: -2.31; 2: 7.34; 3: -0.90

* * *

For each record, write down the corresponding Inhibition percent.
system name: MeCP2-TBL1 interaction (MeCP2-SmBiT / TBL1-LgBiT) (Mus musculus)
Construct: expressed in transfected cells; crude lysate used as a cell-free assay
Sequence (Q9QXE7 166-527): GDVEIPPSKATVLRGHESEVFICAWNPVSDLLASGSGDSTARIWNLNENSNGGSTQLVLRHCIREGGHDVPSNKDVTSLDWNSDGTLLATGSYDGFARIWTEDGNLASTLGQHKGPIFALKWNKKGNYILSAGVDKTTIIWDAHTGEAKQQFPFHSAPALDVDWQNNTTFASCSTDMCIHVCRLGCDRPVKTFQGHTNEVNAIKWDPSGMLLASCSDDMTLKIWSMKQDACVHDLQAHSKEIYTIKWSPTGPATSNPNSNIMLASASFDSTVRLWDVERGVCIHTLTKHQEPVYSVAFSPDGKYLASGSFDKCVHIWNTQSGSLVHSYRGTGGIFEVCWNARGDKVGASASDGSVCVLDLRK
procedure details: MeCP2-TBL1 NanoLuc luciferase complementation assay (cell-free, extracts of transfected HEK293 cells);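 note: each compound tested at 20 µM final concentration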
Type: binding, human
settings: primary screen of Asinex library, single well per compound
Answers are plain numbers.

Past entries and their recorded results:
CN(Cc1ccc(F)cc1)[C@@H]1[C@@H](O)[C@H](Oc2cccc(F)c2)C[C@H]1NC(=O)c1cccc(C(=O)O)c1 ... 1.33
COCCC(=O)N[C@@]1(C)C[C@@H](c2ccc(F)cc2)O[C@@H](c2ccc(N3CCCC3=O)cc2)C1 ... 3.23
CC1(C)Oc2c(O)cccc2[C@H]2O[C@H]3CCN(C(=O)c4cccc(Cn5ccnc5)c4)[C@@H]3C[C@@H]21 ... 5.67
CCn1cc(NC(=O)CN2[C@H]3CCCCC(=O)N[C@@]3(C)C[C@H]2c2cccc(C(F)(F)F)c2)c(C)n1 ... -2.55

Could you report Inhibition percent for every entry in the following list?
1. Cc1nn(C)cc1CCC(=O)N1CCC[C@@H]2NC(=O)c3ccccc3OCCCCC[C@@H]21
2. Cc1nccn1Cc1ccccc1C(=O)N1CCCC(Cc2cccc3ccncc23)CC1 (stereo not drawn)

result:
[-1.51, -0.56]

* * *

Test system: PRKACA-PRKAR2A interaction (SmBiT-PRKACA / LgBiT-PRKAR2A), protein kinase A
Set-up: NanoLuc complementation counter-screen in cell extract, PRKACA with PRKAR2A, loss of luminescence, detects NanoLuc interference
settings: counter-screen for NanoLuc interference; 0.5 h, 20 µM; inhibitor
Structures can show the parent of a compound that is named as a salt.
measured metric: Inh (PKA)
Please state the value followed by its unit.

Past entries and their recorded results:
CN(C)c1ccc(O)c2c1C[C@H]1C[C@H]3[C@H](N(C)C)C(O)=C(C(N)=O)C(=O)[C@@]3(O)C(O)=C1C2=O [UM0142369:01, Minocycline HCl] ... 5.155%
C[C@@H](Oc1ccc2[nH]nc(/C=C/c3cnn(CCO)c3)c2c1)c1c(Cl)cncc1Cl ... 40.12%

Could you report Inh (PKA) for every entry in the following list?
1. O=C(O)C1=C(CSc2nnnn2CS(=O)(=O)O)CS[C@@H]2[C@H](NC(=O)[C@H](O)c3ccccc3)C(=O)N12 [UM0142832:01, Cefonicid (sodium salt)]
2. O=C(NCc1ccccc1)c1csc(Nc2ccncn2)n1
3. Cc1nc(C(=O)NCC(=O)O)c(O)c2ccc(Oc3ccccc3)cc12

result:
2.197%
-0.9736%
9.511%

* * *

For each record, write down the corresponding Inh (PKA).
Tested on: PRKACA-PRKAR2A interaction (SmBiT-PRKACA / LgBiT-PRKAR2A), protein kinase A
Parameters: NanoLuc complementation counter-screen in cell extract, PRKACA with PRKAR2A, loss of luminescence, detects NanoLuc interference
settings: counter-screen for NanoLuc interference; 0.5 h, 20 µM; inhibitor
Where a name gives a salt, the structure may show the parent alone.
One number for each entry, in %.

Past entries and their recorded results:
CC[C@@]1(O)C(=O)OCc2c1cc1n(c2=O)Cc2cc3c(CN(C)C)c(O)ccc3nc2-1 [UM0142480:01, Topotecan HCl] ... 19.17
c1ccc2c(Cc3c[nH]c4ccccc34)c[nH]c2c1 ... 34.9

Could you report Inh (PKA) for every entry in the following list?
1. CS(=O)(=O)c1ccc([C@@H](O)[C@@H](CF)NC(=O)C(Cl)Cl)cc1
2. CSc1cccc(Nc2ncc3cc(-c4c(Cl)cccc4Cl)c(=O)n(C)c3n2)c1
3. COc1cc2nc(N3CCN(C(=O)C4COc5ccccc5O4)CC3)nc(N)c2cc1OC (stereo not drawn) [UM0118850:03, Doxazosin Mesylate]

result:
1. -0.2471
2. 37.99
3. 2.176

Could you report Inh (PKA) for every entry in the following list?
1. CNC(=O)Nc1ccc(-c2nc(N3CC4CCC(C3)O4)c3cnn(C4CCC5(CC4)OCCO5)c3n2)cc1
2. O=C(Nc1c(Cl)cncc1Cl)c1ccc(OC(F)F)c(OCC2CC2)c1
3. FC(F)(F)Oc1ccc(-c2ccc3nnc(C(F)(F)F)n3c2)cc1
4. CNC(=O)c1cc(COc2nnc(Nc3ccc(Cl)cc3)c3ccoc23)ccn1

result:
1: 31.62; 2: 21.52; 3: 6.579; 4: 10.72

* * *

Tested on: PRKACA-PRKAR2A interaction (SmBiT-PRKACA / LgBiT-PRKAR2A), protein kinase A
Parameters: NanoLuc complementation counter-screen in cell extract, PRKACA with PRKAR2A, loss of luminescence, detects NanoLuc interference
settings: 0.5 h, 20 µM; inhibitor
For each record, write down the corresponding Inh (PKA).
Numbers only.

Past entries and their recorded results:
CC(C)OC(=O)[C@H](C)N[P@](=O)(CO[C@H](C)Cn1cnc2c(N)ncnc21)Oc1ccccc1 ... 0.4788
COc1ccc2c(O[C@@H]3C[C@H]4C(=O)N[C@]5(C(=O)NS(=O)(=O)C6CC6)C[C@H]5/C=C\CCCCN(C)C(=O)[C@@H]4C3)cc(-c3nc(C(C)C)cs3)nc2c1C ... 16.13

Could you report Inh (PKA) for every entry in the following list?
1. N[C@@H](Cc1ccc(N(CCCl)CCCl)cc1)C(=O)O
2. CC(C(=O)O)C(=O)O [UM0142795:01, Methylmalonate]
3. Cc1ccccc1CN1C(=O)C2=C(CCN(Cc3ccccc3)C2)N2CCN=C12
4. CC[C@@H]1/C=C(\C)C[C@H](C)C[C@H](OC)[C@H]2O[C@@](O)(C(=O)C(=O)N3CCCC[C@H]3C(=O)O[C@H](/C(C)=C/[C@@H]3CC[C@@H](O)[C@H](OC)C3)[C@H](C)[C@@H](O)CC1=O)[C@H](C)C[C@@H]2OC
5. Cc1sc2c(c1C)C(c1ccc(Cl)cc1)=N[C@@H](CC(=O)Nc1ccc(O)cc1)c1nnc(C)n1-2

result:
1. 3.23
2. -2.942
3. 4.346
4. 13.3
5. 7.269

* * *

Test system: PRKACA-PRKAR2A interaction (SmBiT-PRKACA / LgBiT-PRKAR2A), protein kinase A
Parameters: NanoLuc complementation counter-screen in cell extract, PRKACA with PRKAR2A, loss of luminescence, detects NanoLuc interference
settings: counter-screen for NanoLuc interference; 0.5 h, 20 µM; inhibitor
Peptide text beside a SMILES is read from it.
measured metric: Inh (PKA)

Past entries and their recorded results:
Cc1ccc2nc(NC(=O)CSc3nc4c(c(=O)n3-c3ccccc3)SCC4)sc2c1 ... 27.82%
CCOC(=O)C1=CCCC[C@H]1S(=O)(=O)Nc1ccc(F)cc1Cl ... 47.57%

Attention now shifts to the item below.
query: Identify the reported Inh (PKA) for the following entry. NCC(=O)NCC(=O)N[C@@H](Cc1ccc(O)cc1)C(=O)N[C@@H](CCCN=C(N)N)C(=O)O [UM0141375:01, Papain Inhibitor] (H-GGYR-OH)
result: 1.556%
